assayed target: T1, HCoV-NL63 spike antigens (bead panel) (HCoV-NL63, UniProt Q6Q1S2 19-1296)
T1 sequence: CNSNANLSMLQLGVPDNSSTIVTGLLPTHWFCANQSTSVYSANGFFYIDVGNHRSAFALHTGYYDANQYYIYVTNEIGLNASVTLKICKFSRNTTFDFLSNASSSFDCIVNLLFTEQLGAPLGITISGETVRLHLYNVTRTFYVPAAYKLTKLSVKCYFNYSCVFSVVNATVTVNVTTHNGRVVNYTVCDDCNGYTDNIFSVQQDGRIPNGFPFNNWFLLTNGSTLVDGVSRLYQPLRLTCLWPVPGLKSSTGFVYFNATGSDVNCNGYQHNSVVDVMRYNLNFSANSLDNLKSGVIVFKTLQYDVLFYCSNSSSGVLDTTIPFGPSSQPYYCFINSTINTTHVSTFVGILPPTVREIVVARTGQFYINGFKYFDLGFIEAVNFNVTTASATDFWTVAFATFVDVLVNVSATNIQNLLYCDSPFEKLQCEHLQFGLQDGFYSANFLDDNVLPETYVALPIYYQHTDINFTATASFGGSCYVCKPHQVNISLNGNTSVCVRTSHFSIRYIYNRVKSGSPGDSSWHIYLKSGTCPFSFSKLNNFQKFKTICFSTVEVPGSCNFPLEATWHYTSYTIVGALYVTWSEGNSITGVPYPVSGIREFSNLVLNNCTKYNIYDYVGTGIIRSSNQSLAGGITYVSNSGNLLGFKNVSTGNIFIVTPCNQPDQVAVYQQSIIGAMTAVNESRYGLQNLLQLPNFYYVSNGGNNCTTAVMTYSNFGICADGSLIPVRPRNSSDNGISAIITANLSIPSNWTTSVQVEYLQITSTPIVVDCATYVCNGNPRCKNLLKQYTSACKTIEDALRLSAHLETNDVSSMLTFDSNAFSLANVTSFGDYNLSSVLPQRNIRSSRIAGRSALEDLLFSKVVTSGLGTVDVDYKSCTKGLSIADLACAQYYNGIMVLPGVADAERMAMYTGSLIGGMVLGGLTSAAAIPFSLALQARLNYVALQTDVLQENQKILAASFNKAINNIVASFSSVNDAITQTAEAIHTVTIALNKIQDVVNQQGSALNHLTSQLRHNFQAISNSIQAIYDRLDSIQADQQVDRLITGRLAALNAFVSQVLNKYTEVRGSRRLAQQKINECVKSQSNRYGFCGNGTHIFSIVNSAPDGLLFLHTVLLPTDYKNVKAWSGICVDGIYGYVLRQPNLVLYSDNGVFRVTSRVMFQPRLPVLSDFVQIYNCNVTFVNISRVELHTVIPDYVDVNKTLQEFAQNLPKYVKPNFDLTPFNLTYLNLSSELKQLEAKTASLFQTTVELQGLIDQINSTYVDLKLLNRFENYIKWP
experimental protocol: multiplex bead assay
measured metric: binding result

[
  {
    "binder": "COV_2025 (antibody, V domains shown, human IgG1) VH: QVHLVQSGAEVKKPGASVKVSCKVSGYTLVELSVHWVRQAPAKGLEWIGGFDPEDGETIYAQKFQGRVTMTEDTSTDTAYMELTNLRSEDTAVYYCVTSQPFVSPNWFDPWGQGTLVTVSS VL: QSALTQPASVSGSPGQSITISCTGTSRDVGAYNYVSWYQQHPGKAPKLMIYEVTTRPSGVSNRFSGSKSGNTASLTISGLQAEDEADYYCSSYTGSRTLVFGTGTKVTVL",
    "measured metric": "binding result",
    "reported": "no binding"
  },
  {
    "binder": "COV_2093 (antibody, V domains shown, human IgG1) VH: EVQLVESGGGLVQPGGSLRLSCAASGFMFNRFWMSWVRQAPGKGLEWVTNIKQDGSEKNYVDSVKGRFTISRDNAKNSLYLQMNSLRAEDTAVYYCARDGLYYDFRSPSPFYGMDVWGQGTTVTVSS VL: DIQMTQSPSSLSASVGDRVTITCRASQSISSYLNWYQHKSGKAPKLLIYAASRLQSGVPSRFSGSGSGTDFTLTIVSLQPEDLATYYCQQSYSTPRTFGGGTKVEIKR",
    "measured metric": "binding result",
    "reported": "no binding"
  },
  {
    "binder": "COV_2174 (antibody, V domains shown, human IgG1) VH: EVQLAESGGGLVKPGGSLRLSCAASGFTFSDYYMSWIRQAPGKGLEWVSYISSSGSTIYYADSVKGRFTISRDNAKNSLYLQMNSLRAEDTAVYYCARDWSVVVVPAAPAVDVWGQGTTVTVSS VL: DIQMTQSPSSLSASVGDRVTITCRASQGISNYLAWFQQKPGKAPKSLIYAASSLQSGVPSKFSGSGSGTDFTLTISSLQPEDFATYYCQQYNSYPLTFGGGTKVEIKR",
    "measured metric": "binding result",
    "reported": "no binding"
  },
  {
    "binder": "COV_1007 (antibody, V domains shown, human IgG1) VH: QVTLKESGPVLVKPTETLTLTCTVSGFSLINARVGVSWIRQPPGKALDWLAHIFSSDEKSYSTSLKSRLTISKDTSKSQVVLTMTNMDPVDTATYYCARIRWLSSYYFDYWGQGTLVTVSS VL: DIRMTQSPSSVSASVGDRVTITCRASQGISNWLAWYQQKPGKAPKLLIYAASSLQSGVPSRFSGGGSGTDFTLTISSLQPEDFATYYCQQANSFLLTFGGGTKVEIK",
    "measured metric": "binding result",
    "reported": "no binding"
  },
  {
    "binder": "COV_1201 (antibody, V domains shown, human IgG1) VH: QVQLVQSGAEVKKPGASMKVSCKASGYTFTGYYIHWVRQAPGQGLEWMGRINPNSGGTNYAQKFQGRVTMTRDTSISTAYMELSRLRSDDTAVYYCAREYYYVPYGMDVWGQGTTVTVSS VL: QSALTQPASVSGSPGQSITISCTGTSSDVGGYNFVSWYQHHPGKAPKLMIYEVSNRPSGVSNRFSGSKSGNTASLTISGLQAEDEADYYCSSYTSSSTYVFGTGTKVTVL",
    "measured metric": "binding result",
    "reported": "no binding"
  },
  {
    "binder": "COV_1154 (antibody, V domains shown, human IgG1) VH: EVQLVESGGGLVKPGGSLRLSCAASGFRFSDYNMNWVRQAPGKGLEWVSYISSSSSYIYYADSVKGRFTISRDNAKNSLYLQMNSLRGEDTAVYSCAREASGAYYFDRSGYFDYWGQGTLVTVSP VL: DIQMTQSPSTLSASVGDRVTITCRASQSISSWLAWYQQKPGKAPNLLIYKASSLESGVPSRFSGSGSGTEFTLTISSLQPYDFATYYCQQYNSYPWAFGQGTKVEMKR",
    "measured metric": "binding result",
    "reported": "no binding"
  },
  {
    "binder": "COV_2215 (antibody, V domains shown, human IgG1) VH: EVQLVESGGGLVKPGGSLRLSCAASGFTFSHAWMSWVRQAPGKGLEWVGRIKSKTDGGTADYAAPVKGRFTISRDDSKNTLYLQMNSLKTEDTAVYYCATIRYYYDSSAYLNDAFDIWGQGTMVTVSS VL: SYELTQPPSVSVSPGQTARITCSGDALPKKYAYWYQQKSGQAPVLVIYEDSKRPSGIPERFSGSSSGTMATLTISGAQVEDEADYYCYSTDSSGNHRVFAGGTKLTVLG",
    "measured metric": "binding result",
    "reported": "no binding"
  },
  {
    "binder": "COV_2028 (antibody, V domains shown, human IgG1) VH: QVQLQESGPGLVKPSGTLSLTCVVSGGSISSSNWWSWVRQPPGKGLEWIGEIYHSGSTNYNPSLKSRVTISVDKSKNQFSLRLTSVTAADTAVYYCARGWNYDYWGQGTLVTVSS VL: QSALTQPASVSGSPGQSITIACTGTSSDVGSYNLVSWYQQHPGKAPKLMIYEVSKRPSGLSNRFSGSKSGNTASLTISGLQAEDEADYYCYSYAGSSTWVFGGGTKLTVL",
    "measured metric": "binding result",
    "reported": "no binding"
  },
  {
    "binder": "COV_3129 (antibody, V domains shown, human IgG1) VH: QVQLQQWGAGLLKPSDTLSLTCAANGGGSFSGYYLGYIRQSPGKGLEWIGEINHNGGTNYNPSLKSRVTISGDTSKNQFSLKLSSVTAADTAIYYCARSRDSSLGDAVWYEYWGQGTLITVSS VL: EIVLTQSPATLSLSPGERATLSCRASQSVDIYLAWYQQRPGQAPRLLISDASKRATGVPARFSGSGSGTDFTLTINSLEPEDFAIYYCQQRRDWPINFGQGTRLEIKR",
    "measured metric": "binding result",
    "reported": "no binding"
  }
]

In: Query (binder): COV_1144 (antibody, V domains shown, human IgG1) VH: EVQLVESGGGLVQPGGSLRLSCAASGFTFRSFWMSWVRQAPGKGLEWVANIKEDASEKHYVDPVKGRFTISRDNAKNSLYLQLNSLRAEDMAVYYCARVGRGYCTNGLCYTAFEYWGQGTLVTVSS VL: DIQMTQSPSSLSASVGDRVTITCRTSQSISNYLNWYQQKPGKAPKLLIYAASSLQSGVPSRFSGSGSGTDFTLTISSLQPEDFATYYCQQSYSTAWTFGQGTKVEIRR ; field requested: binding result
Out: no binding
